testedTarget: SARS-CoV-2 nsp12/7/8 (RTC) complex (Severe acute respiratory syndrome coronavirus 2)
testDetails: biochemical
Assay type: biochemical
measurementParameters: read-out: IC50: compound concentration required to inhibit by 50% the SARS-CoV-2 RTC enzymatic activity
pIC50: −log10 of the molar value.
Listing: pIC50 of selected compounds

Example compounds with recorded pIC50:
# query: pIC50 | item CC1=C2C[C@H]3[C@@H](CC(=O)[C@H]4C[C@@H](O)CC[C@@]43C)[C@@H]2CC[C@]12O[C@@H]1C[C@H](C)CN[C@H]1[C@H]2C [Peimisine] | system: SARS-CoV-2 nsp12/7/8 (RTC) complex (Severe acute respiratory syndrome coronavirus 2)
< 4.00

// lookup pIC50 | system=SARS-CoV-2 nsp12/7/8 (RTC) complex (Severe acute respiratory syndrome coronavirus 2) | key= "CO[C@H]1/C=C/O[C@@]2(C)Oc3c(C)c(O)c4c(c3C2=O)C(=O)C(N2CCCC2)=C(NC(=O)/C(C)=C\C=C\[C@H](C)[C@H](O)[C@@H](C)[C@H](O)[C@H](C)[C@H](O)[C@@H]1C)C4=O"
4.34

More entries:
Form field - read-out: pIC50; system: SARS-CoV-2 nsp12/7/8 (RTC) complex (Severe acute respiratory syndrome coronavirus 2); submitted item: "C/C(Nc1ccc(Oc2ccc(N/C(C)=C3\C(=O)C[C@@H]4[C@H]3C4(C)C)cc2)cc1)=C1/C(=O)C[C@@H]2[C@H]1C2(C)C"
< 4.00

====

testedTarget: SARS-CoV-2 nsp12/7/8 (RTC) complex (Severe acute respiratory syndrome coronavirus 2)
testDetails: biochemical
Assay type: biochemical
measurementParameters: read-out: IC50: compound concentration required to inhibit by 50% the SARS-CoV-2 RTC enzymatic activity
Listed below: IC50 values for each entry.

Use the examples below as a reference point.
Need IC50 of "C[C@@H]1CC[C@@]2(OC1)O[C@H]1C[C@H]3[C@@H]4CC=C5C[C@@H](O[C@@H]6O[C@H](CO)[C@@H](O)[C@H](O)[C@H]6O[C@@H]6O[C@@H](C)[C@H](O)[C@@H](O)[C@H]6O)CC[C@]5(C)[C@H]4CC[C@]3(C)[C@@]1(O)[C@@H]2C" , thanks.
> 100 µM

Tell me the measured IC50 of CC(C)=CCC[C@@](C)(O)[C@H]1CC[C@]2(C)[C@@H]1[C@H](O)C[C@@H]1[C@@]3(C)CC[C@H](O)C(C)(C)[C@@H]3CC[C@]12C [(20R)-Protopanaxadiol] , please.
> 100 µM

Dear colleague, I am looking for the recorded IC50 of the following compound: CC1(C)CC[C@]2(C)CC[C@]3(C)C(=CC[C@@H]4[C@@]5(C)CC[C@@H](O)[C@](C)(C(=O)O)[C@@H]5CC[C@]43C)[C@@H]2C1 [Alpha-Boswellic acid]
93.5 µM

# lookup: IC50 of CC(C)=CCC[C@](C)(O)[C@H]1CC[C@]2(C)[C@@H]1[C@H](O)C[C@@H]1[C@@]3(C)CC[C@H](O)C(C)(C)[C@@H]3CC[C@]12C [(20S)-Protopanaxadiol]
> 100 µM

// IC50 lookup, key: "C=CCOc1cccc(C(=O)[C@@H]2[C@@H]3CCCN3[C@]3(C(=O)Nc4c(C)cc(C)cc43)[C@@]23C(=O)Nc2ccccc23)c1"
> 100 µM

New cases:
So what's the measured IC50 for this one? "O=C(COc1ccc2c(-c3ccccc3)cc(=O)oc2c1)Nc1ccc(OCc2ccccc2)cc1"
80.5 µM

IC50 lookup needed for Cc1ccccc1NC(=O)Nc1ccc(CN2C(=O)N([C@@H](CC(C)C)C(=O)N[C@@H](CC(=O)O)c3ccccc3)C(=O)C2(C)C)cc1 [HMR1031, reference compound] , thanks.
91.2 µM
